The following compounds each carry a recorded Ki for wild-type un-phosphorylated FGFR3 protein (Homo sapiens, UniProt P22607).

Look over these answered cases.
Report Ki for "Cn1cc(-c2cnc3ccn4c(CO)c(-c5c(Cl)cccc5Cl)nc4c3c2)cn1" please.
< 10 nM

Proceed to "Cn1cc(-c2cnc3ccc4c(nc(N5[C@@H]6CC[C@H]5C(=O)NC6)n4C)c3n2)cn1"
≥ 400 nM

Proceed to "Cn1cc(-c2cnc3ccn4c(C5CC5)c(-c5ccccc5Cl)nc4c3c2)cn1"
< 10 nM

Proceed to "CN(C)CCn1cc(-c2cnc3ccn4c(CO)c(-c5c(Cl)cccc5Cl)nc4c3c2)cn1"
< 10 nM

New cases:
Report Ki for "Cc1c(C2CC2)nc2c3cc(-c4cnn(C)c4)cnc3ccn12" please.
100 to 400 nM

Proceed to Cc1c(-c2c(Cl)cccc2Cl)nc2c3cc(-c4cnn(C5CCC(C)(C(=O)O)CC5)c4)cnc3ccn12 (stereo not drawn)
< 10 nM
